method description: Example 18 cynomolgus monkey PK study (SC and IM)
Type: in vivo, cynomolgus monkeys
assay conditions: male, cynomolgus monkey, plasma, intramuscular, 20 mg/kg equivalent of EFdA, IM 20 mg/kg equivalent of EFdA; Monkey 2001; 0.042 days; read-out: Example 18 plasma concentrations
property measured: concentration at 0.042 days
Put your answer as a value accompanied by its unit after it.

Report concentration at 0.042 days for C#C[C@]1(COC(=O)CCCCCCCCC)O[C@@H](n2cnc3c(N)nc(F)nc32)C[C@@H]1OC(=O)CCCCCCCCC please.
29.2 ng/mL

* * *

Tested on: HIV pseudotyped virus (NL4-3 provirus, luciferase reporter), WT
method description: PSV (pseudotyped virus) assay, WT
assay conditions: Human immunodeficiency virus 1, NL43, 72 h, read-out: WT IC50
property measured: pIC50
Units for pIC50: none; it is -log10 of a concentration expressed in mol/L.

C#C[C@]1(COC(=O)[C@H](C)NC(=O)CCCCCC)O[C@@H](n2cnc3c(N)nc(F)nc32)C[C@@H]1O = 8.40
C#C[C@]1(COC(=O)CCCCCCCCCCCCC)O[C@@H](n2cnc3c(N)nc(F)nc32)C[C@@H]1OC(=O)CCCCCCCCCCCCC = 5.76

Report pIC50 for C#C[C@]1(COC(=O)CCCC(=O)OC(COC(=O)CCCCCCCCCCCCC)COC(=O)CCCCCCCCCCCCC)O[C@@H](n2cnc3c(N)nc(F)nc32)C[C@@H]1O please.
6.29

* * *

method description: Example 18 cynomolgus monkey PK study (SC and IM)
Format: in vivo, cynomolgus monkeys
assay conditions: male, cynomolgus monkey, plasma, sc, 20 mg/kg, SC 20 mg/kg equivalent of EFdA; Monkey 1001; 0.042 days; read-out: Example 18 plasma concentrations
property measured: concentration at 0.042 days
Put your answer as a value accompanied by its unit after it.

Report concentration at 0.042 days for C#C[C@]1(COC(=O)CCCCCCCCC)O[C@@H](n2cnc3c(N)nc(F)nc32)C[C@@H]1OC(=O)CCCCCCCCC [Example 18] please.
70.3 ng/mL

* * *

method description: Example 18 cynomolgus monkey PK study (SC and IM)
Format: in vivo, cynomolgus monkeys
assay conditions: male, cynomolgus monkey, plasma, intramuscular, 20 mg/kg equivalent of EFdA, IM 20 mg/kg equivalent of EFdA; Mean; 0.125 days; read-out: Example 18 plasma concentrations
property measured: concentration at 0.125 days
Put your answer as a value accompanied by its unit after it.

Report concentration at 0.125 days for C#C[C@]1(COC(=O)CCCCCCCCC)O[C@@H](n2cnc3c(N)nc(F)nc32)C[C@@H]1OC(=O)CCCCCCCCC please.
28.5 ng/mL

* * *

method description: Example 18 cynomolgus monkey PK study (SC and IM)
Format: in vivo, cynomolgus monkeys
assay conditions: male, cynomolgus monkey, plasma, intramuscular, 20 mg/kg equivalent of EFdA, IM 20 mg/kg equivalent of EFdA; Monkey 2002; 0.292 days; read-out: Example 18 plasma concentrations
property measured: concentration at 0.292 days (ng/mL)
Report only the number, with the unit ng/mL understood.

Report concentration at 0.292 days for C#C[C@]1(COC(=O)CCCCCCCCC)O[C@@H](n2cnc3c(N)nc(F)nc32)C[C@@H]1OC(=O)CCCCCCCCC please.
821
